- target.or.test.system: Beta-2 adrenergic receptor (Bos taurus) (UniProt Q28044)
- Sequence (Q28044 whole entry, looked up): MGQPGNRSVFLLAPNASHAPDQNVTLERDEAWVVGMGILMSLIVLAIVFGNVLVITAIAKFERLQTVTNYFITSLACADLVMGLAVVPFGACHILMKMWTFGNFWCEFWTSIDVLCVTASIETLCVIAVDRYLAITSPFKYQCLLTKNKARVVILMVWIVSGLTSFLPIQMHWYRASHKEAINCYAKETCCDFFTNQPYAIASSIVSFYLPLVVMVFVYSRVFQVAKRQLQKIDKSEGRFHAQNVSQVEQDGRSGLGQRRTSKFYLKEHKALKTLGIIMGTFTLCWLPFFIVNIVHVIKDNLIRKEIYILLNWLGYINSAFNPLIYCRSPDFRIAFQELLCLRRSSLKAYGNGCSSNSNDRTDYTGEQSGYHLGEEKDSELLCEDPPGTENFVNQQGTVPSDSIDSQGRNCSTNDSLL
- run.description: Beta-2 adrenergic receptor intrinsic symphaticomimetic activity relative to salbutamol
- Assay type: functional
Class true (1): ISA at least 0.7. Class false (0): ISA below 0.7.

IN: Dear colleague, could you confirm whether CC(C)(C)NCC(O)c1ccccc1 (stereo unspecified) has ISA at or above 0.7?
OUT: false (0)

###

Reported Kd, Beta-2 adrenergic receptor (Bos taurus).
Reply with just the number (in nM).

Here is how some compounds turned out for Kd.
CC(C)(C)NCC(O)c1ccc(O)c(C(N)=O)c1 (configuration not stated)
1030
CC(C)(C)NCC(O)c1ccc(O)c(N)c1 (configuration not stated)
2170
CC(C)(C)NCC(O)c1ccccc1 (configuration not stated)
2940

IN: Report measured Kd on Beta-2 adrenergic receptor (Bos taurus); entry: CC(C)(C)NCC(O)c1ccc(O)c(O)c1 (configuration not stated)
Sequence (Q28044 whole entry): as the sequence (Q28044 whole entry, looked up) above
OUT: 670

IN: Report measured Kd on Beta-2 adrenergic receptor (Bos taurus); entry: CNc1cc(C(O)CNC(C)(C)C)ccc1O (configuration not stated)
OUT: 560

IN: Report measured Kd on Beta-2 adrenergic receptor (Bos taurus); entry: CC(C)(C)NCC(O)c1cc(Cl)c(O)c(Cl)c1 (configuration not stated)
OUT: 6470

IN: Report measured Kd on Beta-2 adrenergic receptor (Bos taurus); entry: CC(C)(C)NCC(O)c1ccc(O)cc1 (configuration not stated)
OUT: 1350
